All values here come from paper doi:10.1101/2022.07.25.501481v1.

Here we list compounds with their recorded pIC50 when tested on UniProt:Q8A028.
Sequence (Q8A028 20-736, change not shown): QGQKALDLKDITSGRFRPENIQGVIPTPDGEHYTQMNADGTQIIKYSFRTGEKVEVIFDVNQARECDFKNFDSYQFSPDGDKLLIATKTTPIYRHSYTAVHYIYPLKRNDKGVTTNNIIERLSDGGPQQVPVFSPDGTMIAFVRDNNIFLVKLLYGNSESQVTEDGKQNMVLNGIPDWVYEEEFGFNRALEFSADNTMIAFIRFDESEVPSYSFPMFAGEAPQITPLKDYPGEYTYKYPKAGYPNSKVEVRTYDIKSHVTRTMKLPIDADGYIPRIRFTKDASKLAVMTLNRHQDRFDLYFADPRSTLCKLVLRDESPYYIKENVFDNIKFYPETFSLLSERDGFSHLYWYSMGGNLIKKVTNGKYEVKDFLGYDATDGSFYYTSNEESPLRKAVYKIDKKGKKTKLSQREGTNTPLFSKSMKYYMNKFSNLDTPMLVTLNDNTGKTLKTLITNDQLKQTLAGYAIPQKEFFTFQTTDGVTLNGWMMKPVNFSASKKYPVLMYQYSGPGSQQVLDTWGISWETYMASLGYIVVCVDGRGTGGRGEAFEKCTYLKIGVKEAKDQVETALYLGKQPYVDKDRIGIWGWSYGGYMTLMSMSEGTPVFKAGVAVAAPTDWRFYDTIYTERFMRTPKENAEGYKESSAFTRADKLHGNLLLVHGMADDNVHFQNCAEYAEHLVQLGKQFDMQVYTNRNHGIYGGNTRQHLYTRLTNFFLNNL
pIC50: −log10 of the molar value.
observation_type: pIC50

(A) CC#CCn1c(N2CCC[C@@H](N)C2)nc2c1c(=O)n(Cc1nc(C)c3ccccc3n1)c(=O)n2C
(B) CC(C)[C@H](N)C(=O)N1CCC[C@H]1B(O)O
Lookup: For the two items A and B , which reports the higher pIC50 value? API: response body contains the label of the selected item.
Found: B

(A) N#C[C@@H]1C[C@@H]2C[C@@H]2N1C(=O)[C@@H](N)C12CC3CC(CC(O)(C3)C1)C2
(B) N[C@@H](CC(=O)N1CCn2c(nnc2C(F)(F)F)C1)Cc1cc(F)c(F)cc1F
Lookup: When the recorded pIC50 values are compared, which is smaller: that of A or that of B ? API: response body contains the label of the selected item.
Found: B
